% inhibition at 10 nM values, listed per item
# tested system: human plasma kallikrein (human, UniProt P03952 20-390; P03952 391-638)
# Sequence (P03952 20-390, chain 1 of 2): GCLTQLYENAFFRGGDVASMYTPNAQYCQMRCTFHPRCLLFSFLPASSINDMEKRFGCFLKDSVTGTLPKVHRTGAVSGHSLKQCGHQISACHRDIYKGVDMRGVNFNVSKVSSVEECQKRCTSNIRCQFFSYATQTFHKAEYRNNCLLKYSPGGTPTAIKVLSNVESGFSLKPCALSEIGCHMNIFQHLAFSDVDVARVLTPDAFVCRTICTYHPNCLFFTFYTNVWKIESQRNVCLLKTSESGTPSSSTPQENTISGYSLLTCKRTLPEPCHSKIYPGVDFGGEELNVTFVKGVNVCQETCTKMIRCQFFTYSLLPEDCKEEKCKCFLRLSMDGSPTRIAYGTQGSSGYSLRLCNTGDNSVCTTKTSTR
# Sequence (P03952 391-638, chain 2 of 2): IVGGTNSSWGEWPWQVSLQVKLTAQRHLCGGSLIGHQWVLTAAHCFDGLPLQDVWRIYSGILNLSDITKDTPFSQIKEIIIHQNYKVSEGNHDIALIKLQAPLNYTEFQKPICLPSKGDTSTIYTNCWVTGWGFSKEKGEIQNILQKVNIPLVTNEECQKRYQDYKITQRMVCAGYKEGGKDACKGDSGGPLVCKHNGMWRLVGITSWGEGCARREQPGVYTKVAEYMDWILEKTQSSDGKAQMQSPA
# experimental protocol: cell-based or functional assay
recorded metric: % inhibition at 10 nM (%)

1) M209-F04 (Fab, V domains shown, Tested as Fab; printed HC runs into CH1; amber q written Q; WSQGTL as printed) VH: EVQLLESGGGLVQPGGSLRLSCAASGFTFSHYLMTWVRQAPGKGLEWVSYISPSGGHTIYADSVKGRFTISRDNSKNTLYLQMNSLRAEDTAVYYCARVARGIAARSRTSYLDQWSQGTLVTVSS VL: DIQMTQSPGTLSLSPGERATLSCRTSQFVNSNYLAWYQQTPGQAPRLLIYGASSRATGIPDRFSGTGYGTDFTLTISRLEPEDYGTYYCQQSSRTPWTFGQGTRVEIK | 97.6
2) M205-A02 (Fab, V domains shown) VH: EVQLLESGGGLVQPGGSLRLSCAASGFTFSTYLMAWVRQAPGKGLEWVSGIVSSGGRTLYADSVKGRFTISRDNSKNTLYLQMNSLRAEDTAVYYCARVARGIAARSRTSYFDYWGQGTLVTVSS VL: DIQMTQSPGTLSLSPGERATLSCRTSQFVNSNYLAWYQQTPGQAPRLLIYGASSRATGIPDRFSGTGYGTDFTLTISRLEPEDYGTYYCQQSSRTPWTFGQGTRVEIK | 80.3
3) M207-A01 (Fab, V domains shown) VH: EVQLLESGGGLVQPGGSLRLSCAASGFTFSHYLMTWVRQAPGKGLEWVSYISPSGGHTIYADSVKGRFTISRDNSKNTLYLQMNSLRAEDTAVYYCARVARGISARSRTSCFDYWGQGTLVTVSS VL: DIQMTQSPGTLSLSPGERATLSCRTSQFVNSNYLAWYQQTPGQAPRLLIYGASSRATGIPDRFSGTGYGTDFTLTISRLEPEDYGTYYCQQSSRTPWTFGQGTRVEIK | 67.2
